tested on: Rabbit RBC; type: cell-based
Where a SMILES comes first, the peptide text is derived from it.
measured-metric: Rabbit RBC (% lysis) 200 μM

[[record]]
compound = "C[C@H](NC(=O)[C@H](C)NC(=O)[C@H](Cc1c[nH]c2ccccc12)NC(=O)[C@H](C)NC(=O)[C@H](C)NC(=O)[C@H](Cc1c[nH]c2ccccc12)NC(=O)[C@H](C)NC(=O)[C@H](C)NC(=O)[C@H](Cc1c[nH]c2ccccc12)NC(=O)[C@H](C)NC(=O)[C@H](C)NC(=O)[C@H](CCCCN)NC(=O)[C@H](CCCCN)NC(=O)[C@H](CCCCN)NC(=O)[C@H](CCCCN)NC(=O)[C@H](CCCCN)NC(=O)[C@@H](N)CCCCN)C(N)=O [Peptide W17-6K, KKKKKKAAWAAWAAWAA-NH2] (H-KKKKKKAAWAAWAAWAA-NH2; N-terminus assumed)"
measured_metric = "Rabbit RBC (% lysis) 200 μM"
reported_measurement = 2

[[record]]
compound = "C[C@H](NC(=O)[C@H](C)NC(=O)[C@H](Cc1ccccc1)NC(=O)[C@H](C)NC(=O)[C@H](C)NC(=O)[C@H](Cc1ccccc1)NC(=O)[C@H](C)NC(=O)[C@H](C)NC(=O)[C@H](Cc1ccccc1)NC(=O)[C@H](C)NC(=O)[C@H](C)NC(=O)[C@H](CCCCN)NC(=O)[C@H](CCCCN)NC(=O)[C@H](CCCCN)NC(=O)[C@H](CCCCN)NC(=O)[C@H](CCCCN)NC(=O)[C@@H](N)CCCCN)C(N)=O [Peptide 3F17-6K, KKKKKKAAFAAFAAFAA-NH2] (H-KKKKKKAAFAAFAAFAA-NH2; N-terminus assumed)"
measured_metric = "Rabbit RBC (% lysis) 200 μM"
reported_measurement = 2

[[record]]
compound = "C[C@H](NC(=O)[C@H](C)NC(=O)[C@H](C)NC(=O)[C@H](Cc1c[nH]c2ccccc12)NC(=O)[C@H](Cc1ccccc1)NC(=O)[C@H](C)NC(=O)[C@H](C)NC(=O)[C@H](C)NC(=O)[C@H](C)NC(=O)[C@H](CCCCN)NC(=O)[C@H](CCCCN)NC(=O)[C@H](CCCCN)NC(=O)[C@H](CCCCN)NC(=O)[C@H](CCCCN)NC(=O)[C@@H](N)CCCCN)C(=O)N[C@@H](C)C(=O)N[C@@H](Cc1ccccc1)C(N)=O [KAFW, KKKKKKAAAAFWAAAAF-NH2] (H-KKKKKKAAAAFWAAAAF-NH2; N-terminus assumed)"
measured_metric = "Rabbit RBC (% lysis) 200 μM"
reported_measurement = 1


====

assay: Hydrophobicity (hydropathy) from reverse-phase HPLC retention scale; type: physicochemical; set-up: key: hydropathy scale from HPLC retention times of model peptides (Table 1); conditions: Table 1; of the X-residue, from HPLC retention of KKAAAXAAAAAXAAWAAXAAAKKKK-amide peptides
Where no end group is shown, it is not given here.
measured-metric: Hydropathy

[[record]]
substance = "Glu: KKAAAXAAAAAXAAWAAXAAAKKKK-amide peptide with X-residue Glu (KKAAAEAAAAAEAAWAAEAAAKKKK-NH2)"
measured_metric = "Hydropathy"
reported_measurement = "−1.49"

[[record]]
substance = "Asp: KKAAAXAAAAAXAAWAAXAAAKKKK-amide peptide with X-residue Asp (KKAAADAAAAADAAWAADAAAKKKK-NH2)"
measured_metric = "Hydropathy"
reported_measurement = "−2.49"

[[record]]
substance = "Gln: KKAAAXAAAAAXAAWAAXAAAKKKK-amide peptide with X-residue Gln (KKAAAQAAAAAQAAWAAQAAAKKKK-NH2)"
measured_metric = "Hydropathy"
reported_measurement = "−2.75"

[[record]]
substance = "His: KKAAAXAAAAAXAAWAAXAAAKKKK-amide peptide with X-residue His (X = His; C-terminal amide)"
measured_metric = "Hydropathy"
reported_measurement = "−4.63"

[[record]]
substance = "Pro: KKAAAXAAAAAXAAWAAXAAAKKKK-amide peptide with X-residue Pro (KKAAAPAAAAAPAAWAAPAAAKKKK-NH2)"
measured_metric = "Hydropathy"
reported_measurement = "−4.92"

[[record]]
substance = "K25: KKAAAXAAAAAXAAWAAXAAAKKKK-amide peptide with X = Lys, most hydrophilic peptide tested (KKAAAKAAAAAKAAWAAKAAAKKKK-NH2) [Peptide K25]"
measured_metric = "Hydropathy"
reported_measurement = "−5.00"

